Target: cloned rat mGlu1 receptor (Rattus norvegicus)
Construct: expressed in transfected cells; host or cells: CHO cells
Experiment: Signal transduction at the cloned rat mGlu1 receptor in CHO cells (glutamate-induced Ca2+ rise, FLIPR)
Assay type: cell-based
Settings: inhibition of glutamate-induced intracellular Ca2+ rise, CHO cells expressing mGlu1 receptor; compounds with pIC50 between 7 and 8
The label is 1 for IC50 below 0.02 µM and 0 for IC50 equal to or exceeding 0.02 µM.

Use the examples below as a reference point.
[
  {
    "compound": "COc1ccc2cc(C(=O)[C@H]3CC[C@@H](OC)CC3)ccc2n1",
    "measurement_target": "cloned rat mGlu1 receptor (Rattus norvegicus)",
    "class_label": 0
  },
  {
    "compound": "O=C(Cc1cccc(F)c1)c1ccc2nc3c(cc2c1)CCCO3",
    "measurement_target": "cloned rat mGlu1 receptor (Rattus norvegicus)",
    "class_label": 0
  },
  {
    "compound": "CCCc1cc2cc(C(=O)[C@H]3CC[C@@H](OC)CC3)ccc2nc1OC",
    "measurement_target": "cloned rat mGlu1 receptor (Rattus norvegicus)",
    "class_label": 0
  }
]

Please turn your attention to the following entry.
Determine whether this compound shows IC50 lower than 0.02 µM (ties excluded): C#Cc1nc2ccc(C(=O)C3CCC(OC)CC3)cc2cc1CC (centres unmarked)
1

###

Molecular target: rat mGlu1a receptor (Rattus norvegicus, UniProt P23385)
Construct: host or cells: CHO-dhfr- cells
Sequence (P23385 19-1199): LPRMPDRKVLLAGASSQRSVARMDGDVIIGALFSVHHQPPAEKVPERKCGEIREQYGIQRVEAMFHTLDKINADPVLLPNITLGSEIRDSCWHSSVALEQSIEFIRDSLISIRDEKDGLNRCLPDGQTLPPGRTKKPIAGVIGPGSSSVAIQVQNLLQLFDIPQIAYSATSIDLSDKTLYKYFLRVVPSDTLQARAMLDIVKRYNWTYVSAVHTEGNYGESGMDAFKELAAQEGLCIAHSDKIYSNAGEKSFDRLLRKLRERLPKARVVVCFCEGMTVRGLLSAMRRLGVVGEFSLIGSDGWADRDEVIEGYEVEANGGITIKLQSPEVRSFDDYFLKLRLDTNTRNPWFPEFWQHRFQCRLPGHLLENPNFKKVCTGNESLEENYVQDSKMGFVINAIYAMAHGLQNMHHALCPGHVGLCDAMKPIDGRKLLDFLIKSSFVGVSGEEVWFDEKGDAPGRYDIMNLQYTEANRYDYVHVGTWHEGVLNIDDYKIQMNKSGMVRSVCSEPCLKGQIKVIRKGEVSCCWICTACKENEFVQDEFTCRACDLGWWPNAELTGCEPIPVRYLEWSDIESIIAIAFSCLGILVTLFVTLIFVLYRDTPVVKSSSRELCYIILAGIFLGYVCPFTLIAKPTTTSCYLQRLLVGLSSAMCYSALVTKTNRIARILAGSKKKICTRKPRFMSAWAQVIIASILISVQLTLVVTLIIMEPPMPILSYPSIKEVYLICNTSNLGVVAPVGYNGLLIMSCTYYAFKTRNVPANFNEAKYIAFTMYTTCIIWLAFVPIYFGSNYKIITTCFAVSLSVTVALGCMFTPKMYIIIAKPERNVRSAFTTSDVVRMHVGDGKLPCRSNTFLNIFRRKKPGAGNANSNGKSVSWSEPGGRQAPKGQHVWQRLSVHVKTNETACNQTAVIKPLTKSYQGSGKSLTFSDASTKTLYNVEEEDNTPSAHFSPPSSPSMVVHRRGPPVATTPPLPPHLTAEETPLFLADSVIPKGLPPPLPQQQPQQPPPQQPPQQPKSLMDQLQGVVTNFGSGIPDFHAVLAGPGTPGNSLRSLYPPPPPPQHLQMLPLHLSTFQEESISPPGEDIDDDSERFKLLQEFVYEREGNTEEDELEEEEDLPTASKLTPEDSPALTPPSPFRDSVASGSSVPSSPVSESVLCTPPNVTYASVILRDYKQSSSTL
Experiment: [3H]Compound A binding to rat mGlu1a receptor CHO-dhfr− membranes (saturation, kinetics, inhibition)
Conditions: 2.5 nM [3H]Compound A, 30 min at 4° C.; mean ± SD of 3–4 experiments
# Ki values compiled below
// units = nM; emit number, no label

[
  {
    "compound": "O=C(Cc1ccccc1)c1ccc2nc3c(cc2c1)CCCO3 [Compound A]",
    "measurement_target": "rat mGlu1a receptor (Rattus norvegicus, UniProt P23385)",
    "unit_label": "nM",
    "numeric_result": 1.35
  }
]

Look up Ki for this compound: CCOC(=O)[C@]12CC1/C(=N\O)c1ccccc1O2 (mixture of isomers) [CPCCOEt, reference compound]
4900

###

Items are presented alongside their recorded pIC50.
Molecular target: cloned rat mGlu1 receptor (Rattus norvegicus, UniProt P23385)
Construct: expressed in transfected cells; host or cells: CHO cells
Sequence (P23385 19-1199): as above
Test: Signal transduction at the cloned rat mGlu1 receptor in CHO cells (glutamate-induced Ca2+ rise, FLIPR)
Format: cell-based
Conditions: inhibition of glutamate-induced intracellular Ca2+ rise, CHO cells expressing mGlu1 receptor; compounds with pIC50 between 7 and 8
Note on pIC50: it is the negative log10 of concentration, concentration in mol/L.

[
  {
    "molecule": "O=C(Cc1ccc(F)c(F)c1)c1ccc2nc3c(cc2c1)CCCO3",
    "numeric_result": 7.13
  }
]

Sample CCc1cc2cc(C(=O)CC3CCCCC34OCCO4)ccc2nc1Cl (stereo not drawn) — what was its pIC50?
7.29

Could you do the same for CCc1cc2cc(C(=O)C3CCC(OC)CC3)ccc2nc1NC(=O)c1ccc(=O)[nH]c1 (stereo not drawn) , please?
7.95

Try the molecule CCc1cc2cc(C(=O)Cc3ccc(F)c(F)c3)ccc2nc1C
7.44

Likewise for CCc1cc2cc(C(=O)Cc3ccsc3)ccc2nc1Cl ?
7.22

Param item: CC1CCC(C(=O)c2ccc3nc4c(cc3c2)CCS4)CC1 (stereo not drawn) [Compound 430]
7.39

Also check O=C(c1ccc2nc3c(cc2c1)CCS3)C12CC3CC(CC(C3)C1)C2
7.77

Repeat with CCOCC(=O)Nc1nc2ccc(C(=O)C3CCC(OC)CC3)cc2cc1CC (stereo not drawn)
7.41

Try CCc1cc2cc(C(=O)C3CCC(OC)CC3)ccc2nc1NC(=O)C12CC3CC(CC(C3)C1)C2 (stereo not drawn) next.
7.07

Would you mind doing O=C(c1ccc2nc3c(cc2c1)CCS3)C1COc2ccccc2C1 (stereo not drawn) as well?
7.10

Field entry: CCc1cc2cc(C(=O)C3CCC(OC)CC3)ccc2nc1NC(=O)CCCc1ccc(OC)c(OC)c1 (stereo not drawn)
7.83

Next molecule: COc1nc2ccc(C(=O)[C@H]3CC[C@@H](OC)CC3)cc2cc1C
7.57
